Test system: Escherichia coli
Assay: Antibacterial activity against Escherichia coli ATCC 25922 using DMSO as solvent by broth microdilution method
Format: functional
Bridge positions count the residues as written; N and C are the ends. Square brackets hold non-standard residues; d marks the D form. Peptide text beside a SMILES is read from it. * marks the point of attachment. X1 = CC[C@H](C)CCCCC(=O)*; Dab = NCC[C@H](N)C(=O)O
MEASURED QUANTITY: MIC80

COMPOUND	MIC80
CC[C@H](C)CCCCC(=O)N[C@@H](CCN)C(=O)N[C@H](C(=O)N[C@@H](CCN)C(=O)N[C@H]1CCNC(=O)[C@H]([C@@H](C)O)NC(=O)[C@H](CCN)NC(=O)[C@H](CCN)NC(=O)[C@H](CC(C)C)NC(=O)[C@@H](Cc2ccccc2)NC(=O)[C@H](CCN)NC1=O)[C@@H](C)O (X1-[Dab]T[Dab][Dab][Dab][dF]L[Dab][Dab]T; lactam 4-C)	1.6 µM
C[C@H]1COc2c(N3CCN(C)CC3)c(F)cc3c(=O)c(C(=O)O)cn1c23 [LEVOFLOXACIN]	0.019 µM
CN(C)[C@@H]1C(O)=C(C(N)=O)C(=O)[C@@]2(O)C(O)=C3C(=O)c4c(O)cccc4[C@@](C)(O)[C@H]3C[C@@H]12 [TETRACYCLINE]	3.13 µM

# evaluate next
## Task # get_value(readout='MIC80', item= NC[C@H]1O[C@H](O[C@H]2[C@H](O)[C@@H](O[C@H]3O[C@H](CO)[C@@H](O)[C@H](N)[C@H]3O)[C@H](N)C[C@@H]2N)[C@H](N)C[C@@H]1O [TOBRAMYCIN] )
## Result 0.78 µM
